Data origin, for the record: patent US6310065A

# protocolDescription: Hygroscopic test under conditions of 25° C. and 75% RH (Test Example 1)
# Assay type: physicochemical
# experimentalConditions: solid, 75% rh, Time 1, read-out: Increased decomposed material content
Counter-ions that a name gives are not always drawn.
experimentalEndpoint: degraded (%)
Answer in %, number only, no unit symbol.

Input line: Can you look up the measured degraded of COc1ccc(CNc2cn[nH]c(=O)c2Cl)cc1OCC(=O)N1CCN(Cc2ccccc2)CC1 [2-hydrochloride] for me?
Output line: 0.08
